These data points were gathered from the supplement of paper PMC13207355.

- Tested on: E31 (patient-derived glioblastoma stem cells of proneural subtype);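 also: nuclei counted by high-content imaging of Hoechst-stained cells in laminin-coated 384-well plates, relative to 0.1% DMSO vehicle wells, with staurosporine as cell-death control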
- assay: surviving fraction (nuclei count normalised to DMSO); higher = more cells surviving (less toxic)
- condition_context: 3000 nM; exposure time: 72 h
Structures can show the parent of a compound that is named as a salt.
Could you label it 1 if measured surviving fraction is 0.8 or higher, and 0 otherwise?

Take a look at these entries with their results.
1. C/C=C1\NC(=O)[C@H]2CSSCC/C=C/[C@H](CC(=O)N[C@H](C(C)C)C(=O)N2)OC(=O)[C@H](C(C)C)NC1=O: 0
2. COc1c(N2CCNC(C)C2)c(F)cc2c(=O)c(C(=O)O)cn(C3CC3)c12 (configuration not stated): 1
3. CCC(=O)OCC(=O)[C@@]1(OC(=O)CC)[C@H](C)C[C@H]2[C@H]3[C@H]([C@@H](O)C[C@@]21C)[C@@]1(C)C=CC(=O)C=C1C[C@H]3Cl [Alclometasone dipropionate]: 1
4. O=C1CCc2cc(OCCCCc3nnnn3C3CCCCC3)ccc2N1: 1
5. Nc1nc2n[nH]nc2c(=O)[nH]1: 0

Check the entry COC(=O)[C@@H]1[C@H]2C[C@H]3c4[nH]c5ccccc5c4CCN3C[C@@H]2CC[C@@H]1O [Yohimbine hydrochloride] : does surviving fraction equal or exceed 0.8? 1

# iterate: CCc1c2c(nc3ccc(OC(=O)N4CCC(N5CCCCC5)CC4)cc13)-c1cc3c(c(=O)n1C2)COC(=O)[C@]3(O)CC 0
